All values here come from ChEMBL document CHEMBL1201862.

System: CCRF-CEM
Assay: NCI tumour cell line growth inhibition, 48 h
Activity calls are given as the source filed them. No stated cut-off is given here; in the data, active = GI50 up to about 1.1 µM and inactive = higher.
Classes used: active, inactive

compound	class label
CC1(C)CC2C(C1=O)C1(C)CCCC2(C)C1=O (configuration not stated)	inactive
CC1=CC2=C(C=O)C(=O)[C@](C)(O)[C@@H](O)C2=CO1	inactive
O=C(c1ccco1)N(C(=S)N1CCN(c2ccccc2)CC1)C1CCCCC1	inactive
CN1C(=O)C(C)(C)C2(SC(C)(C)C2(C)C)N(C)C1=S (configuration not stated)	inactive
C=CC(C)(C)c1c(OC)oc2ccc(OC)c(C)c2c1=O	inactive
C=C(C)[C@H]1C2=CC(C)=C(O2)[C@@H](O)[C@H](C(=C)C)CCC2=C[C@H]1OC2=O [KALLOLIDE A]	inactive
O=S1(=O)CCC2=CC(C(F)(F)F)=CC(C(F)(F)F)=CN21	active
NC(=O)N/N=C/c1ccccc1O	inactive
COc1cccc2nc3c(C(=O)NCCN(C)C)cccc3nc12	inactive
Cn1nnc2c3c(N(CCO)CCO)ccnc3ccc21	inactive
O=C(Cc1nc2ccccc2s1)C(=O)Nc1cccc(Cl)c1	inactive
NC(=O)C(c1ccccc1)N1CCOCC1 (configuration not stated)	inactive
O=C1/C(=C/c2ccc(Cl)cc2)N=C(c2ccccc2)N1C1Nc2cc3c(cc2S1)NC(N1C(=O)/C(=C/c2ccc(Cl)cc2)N=C1c1ccccc1)S3 (configuration not stated)	inactive
Cc1nc2sccn2c1C(=O)NC(=O)Nc1ccc(Cl)cc1	inactive
C/C(=C/C(=O)Nn1c(Cc2ccccc2)n[nH]c1=O)C(=O)O	inactive
CC(C)N1CCOC(c2ccc(O)c(O)c2)C1 (configuration not stated)	inactive
CO/N=C(/C(=O)N(C(=O)/C(=N/OC)c1csc(NC(c2ccccc2)(c2ccccc2)c2ccccc2)n1)n1cnn(CC(=O)OC(C)(C)C)c1=O)c1csc(NC(c2ccccc2)(c2ccccc2)c2ccccc2)n1	inactive
CCOC(=O)C(=[N+]=[N-])C(=O)C1(C(=O)OCC)CCN(C(=O)c2ccccc2)C1=O (configuration not stated)	inactive
Cc1cc(OCC(O)CO)ccc1Cl (configuration not stated)	inactive
NCCSS(=O)(=O)CCN	inactive
CN(Cc1c[n+]([O-])c2nc(N)nc(N)c2n1)c1ccc(C(=O)NC23CC4CC(CC(C4)C2)C3)cc1	inactive
C=C1CC(CC(=O)C(C)CC2CC(=C)C(=O)O2)OC1=O (configuration not stated)	inactive

* * *

Test system: RXF 393
Test: NCI tumour cell line growth inhibition, 48 h
Activity calls are given as the source filed them. Rule as the data show it: active = GI50 up to about 1.1 µM and inactive = higher.
The entries below are paired with their reported GI50.
outcome measure: GI50

> print(dat)
                                    compound  outcome.measure       measured.value
 1                 O=C1C=CC(=O)N1c1ccc(I)cc1             GI50   17.9 µM (inactive)
 2  O=C(c1ccccc1)C1C(c2ccccc2[N+](=O)[O-])N1C1CCCCC1 (stereo not drawn)             GI50   4.27 µM (inactive)
 3  N#Cc1c(N)c(C#N)c2c(c1-c1ccc(Cl)cc1)COc1ccccc1-2             GI50   15.4 µM (inactive)
 4            CC(C)/C(Cl)=N\OC(=O)Nc1ccccc1F             GI50   3.15 µM (inactive)
 5       CC(=O)NC1CONC1=O (stereo not drawn)             GI50  > 100 µM (inactive)
 6  COc1cc(C2c3cc4c(cc3OC3(OC)COC(=O)C23)OCO4)cc(OC)c1OC (stereo not drawn)             GI50    0.142 µM (active)
 7  COc1cc(CCCC(O)COc2cccc3c2C2(O)CCCCCC32)cc(OC)c1 (stereo not drawn)             GI50   24.8 µM (inactive)
 8         Cc1c(N)c(C#N)c2n(C)c3ncccc3n2c1=O             GI50  > 100 µM (inactive)
 9                     NC(=O)N/N=C/c1ccccc1O             GI50  > 100 µM (inactive)
10               CCOC(=N)CC(=O)Nc1cccc(Cl)c1             GI50  > 100 µM (inactive)
11  CC(C)N1CCOC(c2ccc(O)c(O)c2)C1 (stereo not drawn)             GI50  > 100 µM (inactive)
12          N=C(c1ccccc1)N(c1ccccc1)c1ccccc1             GI50   30.5 µM (inactive)
13  CN(C)c1ccc(/C=C(\NC(=O)c2ccccc2)C(=O)NC(Cc2c[nH]c3ccccc23)C(=O)O)cc1 (stereo not drawn)             GI50  > 100 µM (inactive)
14  O=c1c2cc3c(=O)n4c(cc(-c5ccccc5)c5cc(Cl)ccc54)nc3cc2nc2cc(-c3ccccc3)c3cc(Cl)ccc3n12             GI50   34.8 µM (inactive)
15  O=C(c1ccco1)N(C(=S)N1CCN(c2ccccc2)CC1)C1CCCCC1             GI50   52.6 µM (inactive)
16                 CN(C)Cc1ccc(O)c(CN(C)C)n1             GI50  > 100 µM (inactive)
17  OC(CC1SCCCS1)c1ccccc1 (stereo not drawn)             GI50  > 100 µM (inactive)
18  CN(C)CCNc1ccc2c(=O)n(CCN(C)C)c(=O)n3c4ccc([N+](=O)[O-])cc4c(=O)c1c23             GI50    0.198 µM (active)
19               O=C(NCc1ccccc1)c1cnc(Cl)cn1             GI50  > 100 µM (inactive)
20  C[C@H]1C(=O)c2c(cc(O)c(C3OC(CO)C(O)C(O)C3O)c2O)OC1c1ccc(O)c(O)c1 (stereo partly drawn)             GI50  > 100 µM (inactive)
21                      CCc1c(Cl)nc(Cl)nc1Cl             GI50    0.296 µM (active)
22  CC(NC(=O)C(NC(=O)CNC(=O)OC(C)(C)C)C(C)C)C(=O)Oc1c(Cl)c(Cl)c(Cl)c(Cl)c1Cl (stereo not drawn)             GI50   17.5 µM (inactive)
23  N#CC(C(=O)/C(=N/NC(=O)c1ccccc1O)C(C#N)c1ccccc1)c1ccccc1 (stereo not drawn)             GI50  > 100 µM (inactive)

* * *

Test system: BT-549
Experiment: NCI tumour cell line growth inhibition, 48 h
The source made the active and inactive calls. No stated cut-off is given here; in the data, active = GI50 up to about 1.1 µM and inactive = higher.
Classes used: active, inactive

> print(dat)
                                    molecule  class.label
 1      COc1ccc(/C(=N\Nc2ccccn2)c2ccccn2)cc1       active
 2    Cc1cc2[nH]c3[nH]c(=O)[nH]c(=O)c3c2cc1C     inactive
 3    O=C(O)c1cnccc1-c1cc(=O)[nH]n1-c1ccccc1     inactive
 4  CCOP(=O)(CN1CCNCCN(CP(=O)(OCC)OCC)CC1)OCC     inactive
 5  CN(C)C(=S)/N=C1\SC(=N\c2ccccc2)/C(=N/c2ccccc2)N1c1ccc([N+](=O)[O-])cc1     inactive
 6  O=Nc1c(-c2cccc([N+](=O)[O-])c2)nc2cnccn12     inactive
 7  C/C(=N\N)C(CN1CCCCC1)C(c1ccccc1)c1c(O)c2ccccc2oc1=O (stereo unspecified)     inactive
 8  O[C@H]1[C@H](O)[C@H](O)CN2CCC[C@@H](O)[C@H]12     inactive
 9  COc1cc(/C=C/C(=N\NS(=O)(=O)c2ccc(C)cc2)c2sc(NNC(C)=O)nc2C)ccc1O     inactive
10                  OCC1(CNc2cc(Cl)ncn2)CCC1     inactive
11  NC(=O)c1cccc(/N=c2\oc3ccc(Br)cc3cc2-c2nc3ccccc3[nH]2)c1     inactive

* * *

Test system: U-251
Test: NCI tumour cell line growth inhibition, 48 h
Active and inactive are the calls of the source. Cut-off read from the data, not from the text of the source: active = GI50 up to about 1.1 µM and inactive = higher.
Classes used: YES for active, NO for inactive

compound	class label
COc1cc(Nc2nc3cc(C(F)(F)F)ccc3nc2C)cc(OC)c1OC	NO
COc1cc(C2c3cc4c(cc3OC3(OC)COC(=O)C23)OCO4)cc(OC)c1OC (stereo not drawn)	YES
CC(C)(C)c1cc(C2c3cc4c(cc3OC(O)(CO)C2C(=O)O)OCO4)cc(C(C)(C)C)c1O.CC(C)(C)c1cc(C2c3cc4c(cc3OC3(O)COC(=O)C23)OCO4)cc(C(C)(C)C)c1O (stereo not drawn)	NO
O=C1C[C@H]2CCCN2[C@@H](c2ccccc2)C1	NO
CCOC(=O)C(SCCO)C(C(=O)OCC)n1cnc2c(N)ncnc21 (stereo not drawn)	NO
Cc1ccc(-n2nnc(C(N)=O)c2O)cc1	NO
Cc1ccc(C2=NN=C3C(c4ccccc4)=Nc4ccccc4N3C2)cc1	NO
O=C(CC(O)(C(F)(F)F)C(F)(F)Cl)CC(O)(C(F)(F)F)C(F)(F)Cl (stereo not drawn)	NO
